target: T1, His-tagged recombinant PHB2 (UniProt Q99623 1-299, limits assumed); experiment: surface plasmon resonance (BiAcore) interaction analysis
T1 construct: also called prohibitin 2; REA; not shown: His tag
T1 sequence (Q99623 whole entry): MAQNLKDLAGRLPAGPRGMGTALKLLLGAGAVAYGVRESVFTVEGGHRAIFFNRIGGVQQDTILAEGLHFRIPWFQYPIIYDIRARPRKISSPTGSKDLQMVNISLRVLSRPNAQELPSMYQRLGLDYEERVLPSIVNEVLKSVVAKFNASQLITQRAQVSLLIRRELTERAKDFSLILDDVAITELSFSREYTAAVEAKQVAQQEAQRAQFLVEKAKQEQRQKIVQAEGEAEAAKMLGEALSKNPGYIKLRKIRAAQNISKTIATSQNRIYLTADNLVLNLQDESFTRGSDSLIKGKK
outcome_measure: pKd
Recall that pKd is obtained by taking minus log10 of the concentration measured in molar.

Challenge: What does the data say about its pKd? Entry: RRRRRRRRRRRGGGQMLSDLTLQLRQR (Unstapled control peptide, synthesized as in Yoshimaru et al. 2013; also called dominant negative peptide) [11R-ERAP (11R-GGG-QMLSDLTLQLRQR)]
Response given: 4.89
